test: Plasma pharmacokinetics in rabbits (LC-MS/MS)
Type: in vivo, rabbit
condition-label: rabbit, plasma, intravenous, 10 mg/kg, 240 min; individual subjects
measured-attribute: concentration at 240 min

Lookup: Find the recorded concentration at 240 min belonging to CCCc1cc(=O)oc2c(C(=O)N3CCCc4ccccc43)c(OCCN3CCN(C)CC3)ccc12 and report it.
Found: 429 nM

* * *

System: neonatal rat ventricular cardiomyocytes (NVCM)
test: Inherent toxicity (LDH release) in NVCM
Format: cell-based
Parameters: key: % of total LDH activity
condition-label: compound alone 1 µM; NVCM; Suppl.Fig.4
measured-attribute: LDH release (inherent toxicity), mean of independent replicates
Respond using a number only.

- compound: "CCCc1cc(=O)oc2c(C(=O)N3CCCc4ccccc43)c(O)ccc12 [2c]"
  study-target: "neonatal rat ventricular cardiomyocytes (NVCM)"
  measured: 16.6801
- compound: "CCCOc1ccc2c(CC)cc(=O)oc2c1C(=O)N1CCCc2ccccc21 [4b]"
  study-target: "neonatal rat ventricular cardiomyocytes (NVCM)"
  measured: 13.8348
- compound: "CCCOc1ccc2c(CCC)cc(=O)oc2c1C(=O)N1CCCc2ccccc21 [4c]"
  study-target: "neonatal rat ventricular cardiomyocytes (NVCM)"
  measured: 16.4897
- compound: "Cc1cc(=O)oc2c(C(=O)N3CCCc4ccccc43)c(OCCO)ccc12 [5a]"
  study-target: "neonatal rat ventricular cardiomyocytes (NVCM)"
  measured: 12.9508
- compound: "CCCCc1cc(=O)oc2c(C(=O)N3CCCc4ccccc43)c(OC)ccc12 [3d]"
  study-target: "neonatal rat ventricular cardiomyocytes (NVCM)"
  measured: 16.3261
- compound: "CCCCc1cc(=O)oc2c(C(=O)N3CCCc4ccccc43)c(OC)cc(OC)c12 [1d]"
  study-target: "neonatal rat ventricular cardiomyocytes (NVCM)"
  measured: 13.6854

Lookup: Lab note: need LDH release (inherent toxicity), mean of independent replicates for CCCCc1cc(=O)oc2c(C(=O)N3CCCc4ccccc43)c(OCCO)ccc12 [5d] on neonatal rat ventricular cardiomyocytes (NVCM), anyone have it?
Found: 15.5462

Lookup: // same read-out, input: CCc1cc(=O)oc2c(C(=O)N3CCCc4ccccc43)c(OCCO)ccc12 [5b]
Found: 14.0098

Lookup: // same read-out, input: CCCc1cc(=O)oc2c(C(=O)N3CCCc4ccccc43)c(OCCO)ccc12 [5c]
Found: 14.0641

Lookup: // same read-out, input: CCCc1cc(=O)oc2c(C(=O)N3CCCc4ccccc43)c(OC)ccc12 [3c]
Found: 16.3627
